tested on: Wolbachia pipientis; test: Anti-Wolbachia Cell-Based Screen; assay type: functional; parameters: scale not given: in the data most compounds retested in dose-response had high values; conditions: 5 µM
Out of some 48,000 compounds screened, about 13,000 (27%) showed an effect of 50% or more. Some of the results follow.
property: Percent Effect (%)
Give just the number in %; leave the unit off.

Study these solved cases before continuing.
[
  {
    "molecule": "Cc1cc(NC(=O)CN(C)CC2CCCN2c2cccnn2)n(C)n1 (stereo not drawn)",
    "targetUnderTest": "Wolbachia pipientis",
    "unitsLabel": "%",
    "Percent Effect": -5.162
  },
  {
    "molecule": "O=C1NCCN(C(=O)CN2CCOC2=O)C1c1cccc(F)c1 (stereo not drawn)",
    "targetUnderTest": "Wolbachia pipientis",
    "unitsLabel": "%",
    "Percent Effect": 1.4
  },
  {
    "molecule": "Cc1nc(-c2ccccc2)sc1C(=O)NCCNc1ncccn1",
    "targetUnderTest": "Wolbachia pipientis",
    "unitsLabel": "%",
    "Percent Effect": 2.127
  },
  {
    "molecule": "O=S1(=O)COCCN1CCCOc1ccc(F)cc1",
    "targetUnderTest": "Wolbachia pipientis",
    "unitsLabel": "%",
    "Percent Effect": 1.2
  },
  {
    "molecule": "CC(C)CN1C(=O)C2(CCCC2)NC12CCSCC2",
    "targetUnderTest": "Wolbachia pipientis",
    "unitsLabel": "%",
    "Percent Effect": -2.921
  }
]

Task: Kindly state the measured Percent Effect obtained for Cc1n[nH]c(C)c1CCC(=O)N1CCc2c(nc[nH]c2=O)C1 with Wolbachia pipientis.
Result: 106.7

Task: Note, next up: Cc1[nH]nc(CCC(=O)N2CCc3ncnc(NCCO)c3CC2)c1C
Result: 77.14

Task: Same lookup for CCC[C@H]1CN(CCS(C)(=O)=O)C[C@@H]1NC(=O)c1cc(CC)on1 , please.
Result: 21.57

Task: O=C1CCCN1C1CCN(S(=O)(=O)CCOc2ccc(F)cc2)CC1 , same question.
Result: 0.4633

Task: Same again, this time with CC(=O)c1cccc(OC(C)C(=O)Nc2cnn(CCN(C)C)c2)c1 (stereo not drawn)
Result: -1.957

Task: Note, next up: O=C(O)c1ccccc1-c1ccc(CN2CCCC(O)C2)cc1 (stereo not drawn)
Result: 104.1

Task: Also need COc1c(CNC2CCCOc3ccc(F)cc32)c(C)nn1C.Cl (stereo not drawn) , thanks.
Result: -15.22

Task: Now this one: Cc1ccccc1CCC(=O)N1CCc2ncnc(NCCO)c2CC1
Result: -0.3127
